- measurement-notes: amyloid nucleation score (Sup35N fusion, yeast selection) (log enrichment); library NNK2; higher = more nucleation; inactive = no reads after selection;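 also: zero at mode of non-aggregating sequences after 7 days selection at 30°C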
Consider the reported amyloid nucleation score of an entry and match it to a band in low bracket: < -0.03; middle bracket: ≥ -0.03 and < 0.8; high bracket: ≥ 0.8

Here are 10 substances together with their reported answers.
substance	assigned-class
MFLYTVTNARFYEWW	middle bracket
NHSTVYLLMEISTGLVISGN	high bracket
SAYDSTCRFISGFL	low bracket
MWTLLVKSTKGAHGQYSVMH	middle bracket
WRHSVVMYNWKIGHCVGDYW	middle bracket
TIACLEINPHAMSDYMRLCH	low bracket
VPSFRYCTSYQTATSLR	middle bracket
MVGCFWVMFVGREIYSRVRS	low bracket
CLGGTLYLRCFIVDLLWSTG	low bracket
LYGRYANERWRLNSLDEKVT	high bracket

Task item: Classify this substance: HKIPLFYCSYTELGSSVERR
Reply: high bracket

Task item: Classify this substance: RCRVFYQNHIYLGFLKCNQS
Reply: high bracket

Task item: Classify this substance: TVMRGVLCMTILYLMWHKGY
Reply: high bracket

Task item: Classify this substance: DCFSYSHLRGACNVECLFYP
Reply: low bracket

Task item: Classify this substance: CNSRNMVTGISM
Reply: middle bracket

Task item: Classify this substance: MALHVQWRVTGSI
Reply: high bracket
